target: NLRP3 inflammasome (Homo sapiens); construct: host or cells: THP1 human acute monocytic leukemia cells, PMA-differentiated, LPS-primed; experiment: NLRP3 inflammasome activation in LPS-primed, nigericin-activated THP1 macrophages, IL-1β AlphaLISA; assay type: cell-based; conditions: PMA-differentiated, 1 hr compound, Nigericin 6.7 uM 3 hrs, IL-1β in supernatant
Measured IC50 of individual entries

Solved cases (4 shown):
line-notation: Cn1ccc2c(-c3ccc(C#N)cc3O)nnc(N[C@@H]3CCCN(CCF)C3)c21
observable: IC50
observed-result: 10 to 100 nM

line-notation: Cc1cc(C#N)ccc1-c1nnc(N[C@@H]2CCCN(C)C2)c2c1ccn2C
observable: IC50
observed-result: 10 to 100 nM

line-notation: CN1CCC[C@@H](Oc2nnc(-c3ccc(C(F)(F)F)cc3)c3ccn(C)c23)C1
observable: IC50
observed-result: 100 to 500 nM

line-notation: Cc1cn(C)c2c(N[C@@H]3CCCN(C)C3)nnc(-c3ccc(C(F)(F)F)cc3)c12
observable: IC50
observed-result: 100 to 500 nM

CN1CCC[C@@H](Nc2nnc(-c3ccc(C(F)(F)F)cc3)c3cnsc23)C1 yielded IC50 of 10 to 100 nM

GET /value?item= CN1CCC[C@@H](N(C)c2nnc(-c3ccc(C(F)(F)F)cc3)c3[nH]ccc23)C1 &field=IC50 returns 1000 to 10000 nM

// IC50 lookup, compound = CN1CCC[C@@H](N(C)c2nnc(-c3ccc(C(F)(F)F)cc3)c3ncn(C)c23)C1 , result: ≥ 10000 nM

So for Cc1cc(-c2nnc(N[C@@H]3CCCN(C)C3)c3cc[nH]c23)ccc1C(F)(F)F , the logged IC50 turned out to be ≥ 10000 nM

----------
test system: IL-6; assay: IL-6 in supernatants of LPS-primed, nigericin-treated THP1 macrophages, Hu IL-6 AlphaLISA; format: cell-based; settings: Homo sapiens, THP-1, PMA-differentiated, 1 hr compound, Nigericin 6.7 uM 3 hrs, IL-6 in supernatant
pIC50: −log10 of the molar value.
observable: pIC50

Answered examples (8):
line-notation: CN1CCC[C@@H](Nc2nnc(-c3ccccc3C(F)F)c3cc[nH]c23)C1
pIC50: ≤ 5.00
//
line-notation: CN1C[C@H](Nc2nnc(-c3ccc(C#N)cc3O)c3ccn(C)c23)CC(F)(F)C1
pIC50: ≤ 5.00
//
line-notation: CN1CCC[C@@H](Nc2nnc(-c3ccc(Cl)cc3)c3[nH]ccc23)C1
pIC50: ≤ 5.00
//
line-notation: CN1CCC[C@@H](Nc2nnc(-c3ccccc3C(F)F)c3[nH]ccc23)C1
pIC50: ≤ 5.00
//
line-notation: Cc1cc(C#N)cc(O)c1-c1nnc(N[C@@H]2CCCN(C)C2)c2c1ccn2C
pIC50: 5.00 to 5.30
//
line-notation: CN1CCC[C@@H](Oc2nnc(-c3ccc(F)cc3O)c3ccsc23)C1
pIC50: ≤ 5.00
//
line-notation: CN1CCC[C@@H](Oc2nnc(-c3ccc(C(F)(F)F)cc3)c3ccsc23)C1
pIC50: ≤ 5.00
//
line-notation: CN1CCC[C@@H](Nc2nnc(-c3ccc(F)cc3)c3cc[nH]c23)C1
pIC50: 5.30 to 6.00

# pIC50 (compound: CN1CCC[C@@H](Nc2nnc(-c3ccc(C(F)(F)F)cc3)c3sccc23)C1 ) is 5.30 to 6.00

The compound CN1CCC[C@@H](Oc2nnc(-c3ccc(C(F)(F)F)cc3)c3ccn(C)c23)C1 showed pIC50 equal to 5.00 to 5.30

GET /value?item= Cn1ncc2c(-c3ccc(C(F)(F)F)cc3)nnc(N[C@@H]3CCCN(CC4CC4)C3)c21 &field=pIC50 returns ≤ 5.00

Per the records, this compound ( CN1CCC[C@@H](Nc2nnc(-c3ccccc3O)c3[nH]ccc23)C1 ) has pIC50 equal to ≤ 5.00

----------
molecular target: NLRP3 inflammasome (Homo sapiens, UniProt Q96P20); assay: NLRP3 inflammasome activation in LPS-primed, nigericin-activated THP1 macrophages, IL-1β AlphaLISA; conditions: PMA-differentiated, 1 hr compound, Nigericin 6.7 uM 3 hrs, IL-1β in supernatant
Sequence (Q96P20 whole entry): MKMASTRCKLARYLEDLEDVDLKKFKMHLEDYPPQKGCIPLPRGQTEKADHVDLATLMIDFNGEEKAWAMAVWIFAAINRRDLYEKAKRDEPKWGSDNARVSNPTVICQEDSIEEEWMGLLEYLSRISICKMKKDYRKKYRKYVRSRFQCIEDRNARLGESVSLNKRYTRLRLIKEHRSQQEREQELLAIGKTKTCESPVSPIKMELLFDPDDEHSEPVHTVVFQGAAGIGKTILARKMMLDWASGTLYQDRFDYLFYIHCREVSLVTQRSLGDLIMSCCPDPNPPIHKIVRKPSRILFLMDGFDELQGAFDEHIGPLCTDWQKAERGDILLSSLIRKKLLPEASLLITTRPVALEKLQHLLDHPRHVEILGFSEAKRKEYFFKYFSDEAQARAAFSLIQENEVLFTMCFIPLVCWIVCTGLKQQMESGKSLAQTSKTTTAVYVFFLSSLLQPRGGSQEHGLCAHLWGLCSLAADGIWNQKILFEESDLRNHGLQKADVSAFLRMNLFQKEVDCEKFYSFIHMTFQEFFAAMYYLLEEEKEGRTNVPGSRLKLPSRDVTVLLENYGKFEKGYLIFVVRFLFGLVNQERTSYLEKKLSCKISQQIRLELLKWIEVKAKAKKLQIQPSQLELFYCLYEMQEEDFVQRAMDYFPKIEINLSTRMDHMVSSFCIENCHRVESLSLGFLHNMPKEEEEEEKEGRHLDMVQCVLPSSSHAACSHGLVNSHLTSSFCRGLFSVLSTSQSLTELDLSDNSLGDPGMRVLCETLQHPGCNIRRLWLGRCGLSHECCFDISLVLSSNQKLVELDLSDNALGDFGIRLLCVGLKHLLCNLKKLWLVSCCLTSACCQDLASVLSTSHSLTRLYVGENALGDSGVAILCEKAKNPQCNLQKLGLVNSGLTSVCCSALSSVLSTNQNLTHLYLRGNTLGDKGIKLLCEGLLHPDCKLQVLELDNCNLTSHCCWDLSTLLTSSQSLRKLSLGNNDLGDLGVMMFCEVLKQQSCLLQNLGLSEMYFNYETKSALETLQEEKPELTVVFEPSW
pIC50: −log10 of the molar value.
Parameter pIC50: see the listing below.

molecule: CN1CCC[C@@H](N(C)c2nnc(-c3ccccc3O)c3cc[nH]c23)C1 (single isomer, unassigned)
observed-result: 6.30 to 7.00

molecule: Cc1cc(-c2nnc(N[C@@H]3CCCN(C)C3)c3[nH]ccc23)ccc1C(F)(F)F
observed-result: 5.00 to 6.00

molecule: CN1CCC[C@@H](Nc2nnc(-c3ccccc3)c3[nH]ccc23)C1
observed-result: ≤ 5.00

molecule: CN1CCC[C@@H](N(C)c2nnc(-c3ccc(C#N)cc3)c3ccn(C)c23)C1
observed-result: ≤ 5.00

molecule: CN1CCC[C@@H](Nc2nnc(-c3ccc(Cl)cc3C(F)F)c3ccn(C)c23)C1
observed-result: 7.00 to 8.00

molecule: CC(C)N1CCC[C@@H](Nc2nnc(-c3ccc(C(F)(F)F)cc3)c3ccn(C)c23)C1
observed-result: 6.00 to 6.30

molecule: CN1CCC[C@@H](Nc2nnc(-c3ccccc3)c3cc[nH]c23)C1
observed-result: 6.00 to 6.30

molecule: CN1CCC[C@@H](Nc2nnc(-c3ccc(F)cc3)c3[nH]ccc23)C1
observed-result: ≤ 5.00

Per the record, CNCCN1CCC[C@@H](Nc2nnc(-c3ccc(C#N)cc3O)c3ccn(C)c23)C1 has pIC50 of 6.30 to 7.00

What the record says about Cc1cc2c(N[C@@H]3CCCN(C)C3)nnc(-c3ccc(C(F)(F)F)cc3)c2[nH]1 : pIC50 is 5.00 to 6.00

response.value for CN1CCC[C@@H](Nc2nnc(-c3ccc(C(F)(F)F)cc3)c3[nH]ccc23)C1 (single isomer, unassigned) (field: pIC50) = 6.30 to 7.00

Please fill in: pIC50 reported for CN1CCC[C@@H](N(C)c2nnc(-c3ccc(C(F)(F)F)cc3)c3ccn(C)c23)C1 = 5.00 to 6.00

----------
We begin with a simple list: items and their reported IC50.
molecular target: NLRP3 inflammasome (Homo sapiens, UniProt Q96P20); assay: NLRP3 inflammasome activation in LPS-primed, nigericin-activated THP1 macrophages, IL-1β AlphaLISA; settings: PMA-differentiated, 1 hr compound, Nigericin 6.7 uM 3 hrs, IL-1β in supernatant

compound: CN1CCC[C@@H](N(C)c2nnc(-c3ccccc3O)c3ccn(C)c23)C1 [Compound 18]
IC50: 1000 to 10000 nM

Field IC50 (NLRP3 inflammasome (Homo sapiens, UniProt Q96P20)), entry Cn1ccc2c(-c3ccc(C#N)cc3O)nnc(N[C@@H]3CCCN(c4ccccc4)C3)c21 [Compound 161] : ≥ 10000 nM

# lookup: Cn1ccc2c(-c3ccc(C#N)cc3O)nnc(N[C@@H]3CCCN(C4CC4)C3)c21 [Compound 146] on NLRP3 inflammasome (Homo sapiens, UniProt Q96P20), IC50 = 10 to 100 nM

Let me check: CN1C[C@H](Nc2nnc(-c3ccc(C(F)(F)F)cc3)c3cc[nH]c23)CC(F)(F)C1 [Compound 19] , system NLRP3 inflammasome (Homo sapiens, UniProt Q96P20), measured IC50 is 100 to 500 nM

The reported NLRP3 inflammasome (Homo sapiens, UniProt Q96P20) IC50 of CN1CCC[C@@H](Nc2nnc(-c3ccc(Cl)cc3C(F)F)c3cnn(C)c23)C1 [Compound 118] is 10 to 100 nM

Observed IC50, NLRP3 inflammasome (Homo sapiens, UniProt Q96P20), Cn1ccc2c(-c3ccc(C(F)(F)F)cc3)nnc(N[C@@H]3CCCN(S(C)(=O)=O)C3)c21 [Compound 159] : 1000 to 10000 nM

Entry Cc1cc(C#N)cc(O)c1-c1nnc(N[C@@H]2CCCN(C)C2)c2c1cnn2C [Compound 115] under NLRP3 inflammasome (Homo sapiens, UniProt Q96P20) had IC50 of < 10 nM

The observed IC50 for CN1CCC[C@@H](Nc2nnc(-c3ccc(C(F)(F)F)cc3)c3ccoc23)C1 [Compound 53] when tested with NLRP3 inflammasome (Homo sapiens, UniProt Q96P20) stands at 10 to 100 nM

// returns IC50 for Cc1cc(C#N)cnc1-c1nnc(N[C@@H]2CCCN(C)C2)c2c1cnn2C [Compound 139] with NLRP3 inflammasome (Homo sapiens, UniProt Q96P20); value = ≥ 10000 nM

Short answer on NLRP3 inflammasome (Homo sapiens, UniProt Q96P20) for CN1CCC[C@@H](Nc2nnc(-c3ccc(C(F)(F)F)cn3)c3cnn(C)c23)C1 [Compound 136] , IC50: 100 to 500 nM

CN1CCC[C@@H](Nc2nnc(-c3ccc(C#N)cc3O)c3c(Cl)cn(C)c23)C1 [Compound 157] tested on NLRP3 inflammasome (Homo sapiens, UniProt Q96P20) gave IC50: 100 to 500 nM

The compound CN1CCC[C@@H](Nc2nnc(-c3ncc(C#N)cc3O)c3cnn(C)c23)C1 [Compound 111] , tested on NLRP3 inflammasome (Homo sapiens, UniProt Q96P20), showed IC50 of 100 to 500 nM

The compound CN1CCC[C@@H](N(C)c2nnc(-c3ccc(C(F)(F)F)cc3)c3ccsc23)C1 [Compound 95] , tested on NLRP3 inflammasome (Homo sapiens, UniProt Q96P20), showed IC50 of 500 to 1000 nM
